Just for reference, patent US20180021429A1 is where these values come from.

Answer each item with its documented Binding amount (RU).
SYSTEM_NAME: T1, human FSTL1 (construct not stated) (human, UniProt Q12841 21-308)
T1 construct: also called human FSTL1 antigen; FSTL1 (R&D Systems, Inc. Cat#1694-FN-050)
T1 sequence: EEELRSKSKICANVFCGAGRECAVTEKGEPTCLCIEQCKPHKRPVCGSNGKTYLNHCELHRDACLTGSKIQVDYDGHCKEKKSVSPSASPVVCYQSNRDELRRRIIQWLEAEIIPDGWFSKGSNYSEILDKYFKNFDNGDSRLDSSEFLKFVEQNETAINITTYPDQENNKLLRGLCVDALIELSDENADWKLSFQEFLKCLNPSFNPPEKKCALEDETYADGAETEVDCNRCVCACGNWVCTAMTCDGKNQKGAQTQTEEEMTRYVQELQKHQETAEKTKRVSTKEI
TEST: SPR (Biacore T-200), captured antibody, human FSTL1 10 µg/ml
Answers are plain numbers, in RU.

anti-FSTL1 antibody clone #10 (chicken-mouse chimeric antibody) (antibody, mouse IgG1, kappa, V domains shown) VH: AVTLDESGGGLQTPGGALSLVCKASGFFFFRIYDMGWVRQAPGKGLEWVAGIDDYGRYTGYGSAVKGRATISRDNGQSTVRLQLNNLRAEDTGTYYCARGAGTGCNSAGCGAYAGSIDAWGHGTEVIVSS VL: ASTQPSSVSANPGETVKLTCSGGGSRYGWYQQKSPGSAPVTVIYYNDKRPSDIPSRFSGSKSGSTATLTITGVQAEDEAVYFCGGYDGSRDAGIFGAGTTLTVLG    11.7
anti-FSTL1 antibody clone #8-4 (chicken-mouse chimeric antibody) (antibody, mouse IgG1, kappa, V domains shown) VH: AVTLDESGGGLQTPGGGLSLVCKGSGFTLSSFNMFWVRQAPGKGLEWVAGVGKDGGTAYGAAVDGRATISRDSGQSTVRLQLNNLRAEDTGTYFCAKAAGGCSYSWCGAYVGDLDAWGHGTEVIVSS VL: ASSQPSSVSANPGETVKITCSGGSGYYYGWYQQKSPGSAPVTVIYNNDNKPSDIPSRFSGSKSGSTGTLTITGVQVEDEAVYFCGGYDNSGTGIFGAGTTLTVLG    11.6

Proceed to the following item.
Asked: So what does the record say about Binding amount (RU) for anti-FSTL1 antibody clone #5-10 (chicken-mouse chimeric antibody) (antibody, mouse IgG1, V domains shown) VH: AVTLDESGGGLQTPGGGLSLVCKGSGFTLSSFNMFWVRQAPGKGLEWVAGVGKDGGTTYGAAVDGRATISRDSGQSTVRLQLNDLRAEDTGTYFCAKAAGGCSYSWCGAYVGDLDAWGHGTEVIVSS VL: ASTQPSSVSANPGETVKITCSGGGSYVGSYYYGWYQQKSPGSAPVTVIYNNNQRPSDIPSRFSGSKSGSTATLTITGVQAEDEAVYFCGGYDSSAGGIFGAGTTLTVLG ?
Given back: 9.8
